- tested_system: Pfs230 C1 (Plasmodium falciparum 3D7 (clone of …, UniProt P68874))
- Sequence (P68874 443-731): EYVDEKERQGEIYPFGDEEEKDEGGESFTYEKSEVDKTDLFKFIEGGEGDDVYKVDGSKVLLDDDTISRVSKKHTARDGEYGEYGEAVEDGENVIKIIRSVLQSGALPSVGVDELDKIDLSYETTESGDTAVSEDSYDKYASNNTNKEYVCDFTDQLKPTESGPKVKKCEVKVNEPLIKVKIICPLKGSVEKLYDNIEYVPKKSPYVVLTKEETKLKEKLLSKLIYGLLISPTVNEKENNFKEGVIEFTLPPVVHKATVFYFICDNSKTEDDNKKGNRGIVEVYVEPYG
- protocol: ELISA
- measurement_context: both partners purified
assay_endpoint: binding result

1. RUPA-103 (antibody, V domains shown, also called RUPA-103 (IgG1)) VH: EVQLVESGGGLVKPGGSLRLSCAASGFTFSSYSMNWVRQAPGKGLEWVSSISSGSSYKYYSDSVKGRFTISRDNAKNSLYLQMNTLRAEDTAVYYCARAPEPGLLWFGEWGDYWGQGTLVTVSS VL: EIVLTQSPVTLSLSPGERATLSCRASQSISSSLAWYQQKPGQAPRLLIYDASNRATGIPARFSGSGSGTDFTLTISSLEPEDFAVYYCQQRSIWPPITFGQGTRLEIQ :: binds
2. RUPA-39 (antibody, V domains shown, also called RUPA-39 (IgG1)) VH: DVQLVESGGGLVKPGGSLRLSCAASGFTFSSYTMNWVRQAPGKGLEWVSSISTNIRYIYYADSVKGRFTISRDNAKNSLFLQMDSLRAEDTAVYYCATIAGPLSLKGDFYFDSWGQGTLVTVSS VL: EIVMTQSPATLSVSPGERATLSCRASQSVSSSLAWYQQKPGQAPRLLIHGASTRATGIPTRFSGSGSGTEFTLTISSLQSEDFAVYYCQQYANWPPWTFGQGTKVESK :: binds
3. RUPA-33 (antibody, V domains shown, also called RUPA-33 (IgG1)) VH: EVQLVESGGGLVQPGRSLRLSCAASGFTFDDYAVHWVRQVPGKGLEWVSGISWNSATLAYADSVTGRFTISRDNARNSLYLQMNSLRIEDTALYYCARALPERTYGHRAFDYWGRGTQVTVSS VL: QSALTQPRSVSGSPGQSVTISCTGTSSDVGYFTFVSWYQQHPGEVPKLIIYDVTKRPSGVPDRFSGSKSGNTASLTISGLQSDDEADYYCCSYAGTYHIRFGGGTKLTVL :: binds
